Provide the reported TGI of each item.
System: MDA-N
Procedure Details: NCI tumour cell line growth inhibition, 48 h

Look up TGI: `CCCCCCc1cc2cc(C(=O)Nc3cccc(F)c3)c(=N)oc2cc1O` 11.8 µM

Look up TGI: `COc1ccc(Nc2cc(=O)[nH]c(=O)[nH]2)cc1` > 100 µM

Look up TGI: `O=C(NC(OCc1ccccc1)(C(F)(F)F)C(F)(F)F)OCc1ccccc1` 28.5 µM

Look up TGI: `CN1CCc2c(sc3ncn(Nc4ccc(F)cc4)c(=N)c23)C1` > 100 µM

Look up TGI: `Cc1c(C#N)c2nc3ccccc3n2c(=O)/c1=C/Nc1ccc(Cl)cc1` > 100 µM

Look up TGI: COC1C(=O)CCC2(CO2)C1(O)C1(C)OC1CC=C(C)C (stereo not drawn) > 100 µM

Look up TGI: `CC1(C)[C@H]2Cc3cc4nc5ccccn5c4cc3[C@@H]1C2` 33.4 µM

Look up TGI: `OC(Cc1cc(CC(O)(C(F)(F)F)C(F)(F)F)nc(CC(O)(C(F)(F)F)C(F)(F)F)c1)(C(F)(F)F)C(F)(F)F` 4.09 µM

Look up TGI: CC(C)CC1N=C(OCc2ccccc2)OC1=O (stereo not drawn) > 100 µM

Look up TGI: c1ccc(CC(Nc2cccnc2)c2ccccc2)cc1 (stereo not drawn) 47.8 µM

Look up TGI: CC1CC(=O)Nc2ccccc2N1C(=O)C1CC1 (stereo not drawn) > 100 µM

Look up TGI: `C=CCOCn1cnc2c(=O)[nH]c(N)nc21` > 100 µM

Look up TGI: `CCn1ncc(N=O)c1N` > 100 µM

Look up TGI: `CON[N+]([O-])=NC(C)C` > 100 µM

Look up TGI: Nc1nc(N)c2c(n1)CCC(S(=O)(=O)c1ccc3ccccc3c1)C2 (stereo not drawn) > 100 µM

Look up TGI: `O=C(O)c1ccc(Nc2cnc3cc(C(F)(F)F)ccc3n2)cc1` > 100 µM

Look up TGI: `S=C(S)NCCN1CCNCC1` > 100 µM

Look up TGI: `O=C(O)c1ccc(/C=N/N=C2c3ccccc3-c3ccccc32)cc1` > 100 µM

###

Provide the reported TGI of each item.
System: HOP-62 NSCLC
Procedure Details: NCI tumour cell line growth inhibition, 48 h

Look up TGI: CCN(CC)C(=O)CC12CCCCC1=Nc1ccccc12 (stereo not drawn) > 100 µM

Look up TGI: `C/C(CCN(C)C)=N\OC(=O)c1ccccc1` > 100 µM

Look up TGI: CC(=O)N[C@@H](Cc1ccc(OP(=O)(O)O)cc1)C(=O)N[C@H]1CCC(=O)N2CCC[C@@H](C(=O)NC3CCc4ccccc43)N2C1=O (stereo partly drawn) > 25 µM

###

Tested on: A549 NSCLC
Procedure Details: NCI tumour cell line growth inhibition, 48 h
Provide the reported TGI of each item.

Look up TGI: `COc1cc(CC(=O)O)c([N+](=O)[O-])cc1OC` > 100 µM

Look up TGI: `O=C1c2ccc3c4c(ccc(c24)C(=O)N1CCNCc1ccccc1)C(=O)N(CCNCc1ccccc1)C3=O` 8.77 µM

Look up TGI: O=C(NN1C(=O)CSC1c1c(Cl)cccc1Cl)C(O)c1ccccc1 (centres undefined) 81.6 µM

Look up TGI: `C=CC(=O)N1CCC[C@@H](n2nc(-c3ccc(Oc4ccccc4)cc3)c3c(N)ncnc32)C1` > 10 µM

###

Tested on: SK-MEL-5 melanoma
Procedure Details: NCI tumour cell line growth inhibition, 48 h
Provide the reported GI50 of each item.

Look up GI50: `COc1cc(N(CCCl)CCCl)ccc1/C=N\NC(=O)c1cccnc1` 16.4 µM

Look up GI50: `CCOc1ccc2c(c1)C(=O)c1c-2n(CCCN=[N+]=[N-])c(=O)c2cc([N+](=O)[O-])ccc12` 1.48 µM

Look up GI50: `C#CCNC(=O)CC[C@@H](C)[C@H]1CC[C@H]2[C@@H]3CC[C@@H]4CC(=O)CC[C@]4(C)[C@H]3CC[C@]12C` 8.71 µM

###

Provide the reported TGI of each item.
System: SF-268 CNS
Procedure Details: NCI tumour cell line growth inhibition, 48 h

Look up TGI: `COc1cc(C)[nH]c(=O)c1CNC(=O)c1c(C)n([C@H](C)C2CCN(CC(F)(F)F)CC2)c2ccccc12` > 100 µM

Look up TGI: `COc1ccc(Nc2cc(=O)[nH]c(=O)[nH]2)cc1` > 100 µM

Look up TGI: `Cn1c(=O)c(Oc2ccc(F)cc2F)cc2cnc(NCC(C)(C)O)nc21` > 25 µM

Look up TGI: `C[C@]12CC[C@@H]3c4ccc(OC(=O)N(CCCl)CCCl)cc4CC[C@H]3[C@@H]1CC[C@@H]2OP(=O)(O)O` > 100 µM

Look up TGI: `O=c1c2cc([N+](=O)[O-])ccc2n2n1CCCCC2` > 100 µM

###

Tested on: NCI/ADR-RES ovarian
Procedure Details: NCI tumour cell line growth inhibition, 48 h
Result Type: TGI

Look up TGI: `C[C@]12CC[C@@H]3c4ccc(OC(=O)N(CCCl)CCCl)cc4CC[C@H]3[C@@H]1CC[C@@H]2OP(=O)(O)O` > 100 µM

Look up TGI: `O=C(Nc1ccc(F)cc1)c1cc2c(cc1Cl)Sc1nccn1S2(=O)=O` > 100 µM

Look up TGI: CC1OC(CO)(n2cnc3c(N)ncnc32)C(O)C1O (stereo not drawn) > 100 µM

###

System: NCI-H460 lung
Procedure Details: NCI tumour cell line growth inhibition, 48 h
Result Type: TGI

Look up TGI: `COC(=O)Nc1nc2ccc(C(=O)c3ccc(F)cc3)cc2[nH]1` > 100 µM

Look up TGI: O=C(NN1C(=O)CSC1c1c(Cl)cccc1Cl)C(O)c1ccccc1 (stereo unspecified) > 100 µM

Look up TGI: `O=C1CN(c2ccccc2)C(=O)CN1NCNN1CC(=O)N(c2ccccc2)CC1=O` > 100 µM

Look up TGI: [O-][N+]1=C2CCC/C(=N/O)C2(O)C2CCCCC21N1CCOCC1 (stereo unspecified) > 100 µM

Look up TGI: NC(CSCSCC(N)C(=O)O)C(=O)O (stereo unspecified) > 225 µM

Look up TGI: `O=C(Nc1ccc(Cl)cc1)c1cc(S(=O)(=O)N2CCNNC2=O)c(S)cc1Cl` > 100 µM

Look up TGI: `CC1=CC[C@@H](C(C)(C)O)C[C@@H]1O` > 5000 µM

Look up TGI: `CN(/N=C/C=N/N(C)C1=NCCN1)C1=NCCN1` > 100 µM

Look up TGI: `CC(=O)Nc1cc2c3c(cccc3c1)-c1ccccc1-2` > 100 µM

Look up TGI: `CCc1ncc(CO)n1Cc1cccc2ccccc12` > 100 µM

Look up TGI: CCN(CC)C(=O)CC12CCCCC1=Nc1ccccc12 (stereo unspecified) > 100 µM

###

Test system: COLO 205 colon
Procedure Details: NCI tumour cell line growth inhibition, 48 h; in the data active = GI50 below about 0.43 µM; inactive = the rest
# output must be one of yes = active, no = inactive

Tell me the assay call for `COc1cc(C(=O)NN=C2c3ccccc3-c3ccccc32)cc(OC)c1OC` please. no

Tell me the assay call for CCCCCCCCCCCCCCCCCC[S+](C)CC (stereo unspecified) please. no

Tell me the assay call for `Nc1cc(N)c2nc(NCCc3ccc(Cl)c(Cl)c3)cnc2c1` please. no

Tell me the assay call for `C[C@]12CC[C@@H]3c4ccc(OC(=O)N(CCCl)CCCl)cc4CC[C@H]3[C@@H]1CC[C@@H]2OP(=O)(O)O` please. no

Tell me the assay call for O=C1OCC2=C1C(c1cccc(Cl)c1)c1cc3c(cc1N2CCO)CCC3 (stereo unspecified) please. yes

Tell me the assay call for Nc1n[nH]c2ccc([C@@H]3Nc4ccc5cn[nH]c5c4[C@H]4C5CCC(C5)[C@@H]34)cc12 (stereo partly specified) please. yes

###

System: UO-31 renal
Procedure Details: NCI tumour cell line growth inhibition, 48 h
Result Type: TGI

Look up TGI: `C/C(=N\O)c1cccc(Nc2c3ccccc3nc3occc23)c1` > 100 µM

Look up TGI: `CC(C)c1c(O[Si](C(C)C)(C(C)C)C(C)C)cc2c(c1O)CC[C@H]1C(C)(C)CCC[C@]21C` > 100 µM

Look up TGI: `CCCCCCCCCCCCc1ccsc1-c1ccc(-c2ccc(-c3sccc3CCCCCCCCCCCC)s2)s1` > 100 µM

###

Test system: A549 NSCLC
Procedure Details: NCI tumour cell line growth inhibition, 48 h
Result Type: TGI

Look up TGI: `Cc1[nH]nc(C(=O)N/N=C/c2ccccc2Cl)c1N=NN(C)C` > 100 µM

Look up TGI: `Cc1cc(-c2cc(OC(=O)c3ccccc3)ccc2Cl)cc2nnc(Nc3ccc(OCCN4CCCC4)cc3)nc12` 3.29 µM

Look up TGI: CC(=O)O[C@@H]1CC[C@@]2(C)C(=O)C34C[C@@]5(C)C([C@@H](C)CCCC(C)C)CCC5(C)[C@](O)(O3)C(=O)[C@H]4C2C1(C)C (stereo not given in full) 29.1 µM

Look up TGI: `COc1cccc(/C=N/[N-]C(N)=O)c1[O-].[Co+2].[OH3+].c1ccncc1` > 100 µM

Look up TGI: `Cn1c(=O)c(Oc2ccc(F)cc2F)cc2cnc(NCC(C)(C)O)nc21` > 25 µM

Look up TGI: CC1CCc2c(sc3ncnc(N/N=C/c4ccc(Cl)cc4)c23)C1 (stereo not given) > 100 µM

Look up TGI: `COC(=O)C1=CC(=O)[C@@H]2CCCC[C@H]12` > 100 µM

Look up TGI: `O=C1OC(c2ccccc2Br)=N/C1=C/c1ccccc1` > 100 µM

Look up TGI: `O=C(CC(=O)c1cccc([N+](=O)[O-])c1)C(=O)Nc1ccccc1` > 100 µM

Look up TGI: NC1NCCC(=O)N1CCc1c[nH]c2ccccc12 (stereo not given) 69.3 µM

Look up TGI: `O=C(O)c1ccc(/C=N/N=C2c3ccccc3-c3ccccc32)cc1` > 100 µM

Look up TGI: `O=C(Nc1ccc(Cl)cc1)c1cc(S(=O)(=O)N2CCNNC2=O)c(S)cc1Cl` > 100 µM

Look up TGI: `COC(=O)[C@]12CC[C@@H](C)[C@H](C)[C@@H]1C1=CC[C@@H]3[C@@](C)(CC#N)C4=C(C[C@@]3(C)[C@]1(C)CC2)OC[C@]4(C)C=O` 25 µM

Look up TGI: `CCOC(=O)c1cc([N+](=O)[O-])c(Sc2ncnc3nc[nH]c23)c([N+](=O)[O-])c1` 55.6 µM

Look up TGI: `COc1ccc(Nc2cc(=O)[nH]c(=O)[nH]2)cc1` > 100 µM

This collection of values is drawn from PubChem BioAssay (NCI).
